Entries and their CRISPR KI (% Inhibition) D538G cl. 65 values follow.
tested on: CRISPR KI D538G (Homo sapiens, UniProt P03372, D538G)
Construct: endogenous in cells; host or cells: CRISPR knock-in clones (cl. 50, cl. 65)
Sequence (P03372 1-595 D538G): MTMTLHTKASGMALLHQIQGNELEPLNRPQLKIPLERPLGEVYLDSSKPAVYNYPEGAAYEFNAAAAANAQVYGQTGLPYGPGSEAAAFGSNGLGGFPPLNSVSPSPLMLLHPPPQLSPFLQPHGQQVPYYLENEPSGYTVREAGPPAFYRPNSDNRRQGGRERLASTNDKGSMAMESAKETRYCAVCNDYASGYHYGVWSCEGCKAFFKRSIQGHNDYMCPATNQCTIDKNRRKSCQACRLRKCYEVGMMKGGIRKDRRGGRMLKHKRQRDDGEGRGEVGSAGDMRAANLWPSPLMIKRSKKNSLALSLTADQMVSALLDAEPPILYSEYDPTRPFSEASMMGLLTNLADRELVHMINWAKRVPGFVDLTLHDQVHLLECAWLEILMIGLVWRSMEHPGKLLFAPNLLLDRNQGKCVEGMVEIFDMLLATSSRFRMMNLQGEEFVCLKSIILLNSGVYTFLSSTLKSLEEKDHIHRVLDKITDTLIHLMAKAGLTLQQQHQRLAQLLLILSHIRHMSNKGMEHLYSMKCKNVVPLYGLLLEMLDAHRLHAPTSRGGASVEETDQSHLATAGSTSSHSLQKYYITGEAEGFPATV
method: Luciferase assay, CRISPR KI D538G clones
Assay type: cell-based
run conditions: clone 65
A number alone suffices; assume %.

Some compounds with recorded CRISPR KI (% Inhibition) D538G cl. 65:
• O=C(NCCCCOc1ccc(C(=C2C3CC4CC(C3)CC2C4)c2ccc(O)cc2)cc1)[C@H]1CC[C@H](C(F)(F)F)CC1 = 73
• CC12CC3CC(C)(C1)CC(C(=O)NCCCCOc1ccc(C(=C4C5CC6CC(C5)CC4C6)c4ccc(O)cc4)cc1)(C3)C2 = 44

Req: Using the record for O=C(NCCCCOc1ccc(C(=C2C3CC4CC(C3)CC2C4)c2ccc(O)cc2)cc1)C1CCC(F)(F)CC1 , state its measured CRISPR KI (% Inhibition) D538G cl. 65.
Resp: 77
